All figures here come from patent US10323027B2.

System: Myo-Inositol 1 Phosphate (IP1)
Assay: Measurement of myo-inositol 1 phosphate (IP1) in rat hippocampi after oral administration (Experimental Example 3)
Assay type: in vivo, male Long-Evans rats
Details: IP1 production (IP1/protein) in rat hippocampi; 10 mg/kg oral; relative to Vehicle administration group as 100%
Reported metric: increase rate (%) at 10 mg/kg
Give bare numbers, in %.

Consider the worked cases shown below.
| Molecule | Measurement unit | Test result |
| --- | --- | --- |
| Cc1ccc(Cc2cc3c(cc2C)OCN([C@H]2CCCC[C@@H]2O)C3=O)cn1 (single isomer, unassigned) | % | 36 |
| Cc1cc2c(cc1Cc1ccc(-c3ccn(C)n3)cc1)C(=O)N([C@H]1COCC[C@@H]1O)CO2 | % | 86 |
| Cc1c(Cc2ccc(Cl)nc2)cc2c(c1Cl)OCN([C@H]1CCC[C@@H]1O)C2=O | % | 26 |

Continue with the molecule presented below.
[Q] Entry `Cc1c(Cc2ccc(-n3cccn3)nc2)cc2c(c1F)OCN([C@H]1CCC[C@@H]1O)C2=O` : reported increase rate (%) at 10 mg/kg = ?
[A] 102

###

Biological target: human M1 receptor (hCHRM1) (Homo sapiens)
Construct: expressed in transfected cells
Sequence (P11229 1-460): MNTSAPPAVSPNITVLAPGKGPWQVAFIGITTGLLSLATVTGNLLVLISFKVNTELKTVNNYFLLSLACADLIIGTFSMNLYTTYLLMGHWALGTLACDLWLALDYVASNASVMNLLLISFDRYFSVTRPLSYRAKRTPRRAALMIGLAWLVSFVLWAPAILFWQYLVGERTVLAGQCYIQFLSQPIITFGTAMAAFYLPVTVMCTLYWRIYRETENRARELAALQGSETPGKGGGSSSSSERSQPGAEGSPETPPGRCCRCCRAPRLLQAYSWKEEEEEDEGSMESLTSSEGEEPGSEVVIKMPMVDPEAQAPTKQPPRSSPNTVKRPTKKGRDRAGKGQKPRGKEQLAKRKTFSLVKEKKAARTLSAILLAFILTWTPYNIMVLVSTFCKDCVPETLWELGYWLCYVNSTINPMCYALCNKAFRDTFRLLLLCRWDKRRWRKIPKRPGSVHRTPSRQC
Test: Measurement of M1 receptor positive allosteric modulator (M1PAM) activity, Ca2+ fluorescence by FLIPRtetra (Experimental Example 1)
Assay type: cell-based
Conditions: 10 μM test compound, 100% = acetylcholine 1 μM, 0% = DMSO
Reported metric: activity (%) at 10 μM
Answers are plain numbers, in %.

Consider the worked cases shown below.
| Compound | Target under test | activity (%) at 10 μM |
| --- | --- | --- |
| Cc1ccc(Cc2cc3c(c(F)c2C)OCN([C@H]2CCCC[C@@H]2O)C3=O)cn1 | human M1 receptor (hCHRM1) (Homo sapiens) | 105 |
| Cc1c(Cc2ccc(Cl)nc2)cc2c(c1F)OCN([C@H]1COCC[C@@H]1O)C2=O | human M1 receptor (hCHRM1) (Homo sapiens) | 105 |
| Cc1ccc(Cc2cc3c(cc2C)OCN([C@H]2CCCC[C@@H]2O)C3=O)cn1 (relative stereo) [Example 33] | human M1 receptor (hCHRM1) (Homo sapiens) | 104 |
| Cc1c(Cc2ccc(-n3cccn3)nc2)cc2c(c1F)OCN([C@H]1CCC[C@@H]1O)C2=O | human M1 receptor (hCHRM1) (Homo sapiens) | 88 |
| Cc1c(Cc2ccc(Cl)nc2)cc2c(c1Cl)OCN(CC1CCCO1)C2=O (stereo not shown) | human M1 receptor (hCHRM1) (Homo sapiens) | 93 |
| COc1c(Cc2ccc(-c3cnn(C)c3)nc2)cc2c(c1F)OCN(CC1CCCO1)C2=O (stereo not shown) | human M1 receptor (hCHRM1) (Homo sapiens) | 104 |

Hello, I would appreciate it if you could give activity (%) at 10 μM for each entry below.
1. Cc1c(Cc2ccc(-n3cccn3)cc2)cc2c(c1C)OCN([C@H]1COCC[C@@H]1O)C2=O
2. Cc1c(Cc2ccc(-c3cnn(C)c3)nc2)cc2c(c1C)OCN([C@H]1CCCC[C@@H]1O)C2=O (relative stereo)

[A]
1: 114; 2: 108

Hello, I would appreciate it if you could give activity (%) at 10 μM for each entry below.
1. Cc1cc2c(cc1Cc1ccc(Cl)nc1)C(=O)N([C@H]1CCCC[C@@H]1O)CO2 (relative stereo)
2. COc1ccc(Cc2cc3c(c(F)c2C)OCN([C@H]2CCC[C@@H]2O)C3=O)cn1
3. O=C1c2cc(CN3CCSCC3)c3ccccc3c2OCN1[C@H]1CCC[C@@H]1O
4. Cc1c(Cc2ccc(C#N)cc2)cc2c(c1C)OCN([C@H]1CCC[C@@H]1O)C2=O
5. Cc1c(Cc2ccc(-n3cccn3)cc2)cc2c(c1F)OCN([C@H]1CCC[C@@H]1O)C2=O [Example 5]
6. O=C1c2cc(CN3CCC(F)(F)CC3)c3ccccc3c2OCN1[C@H]1CCC[C@@H]1O
7. COc1c(Cc2ccc(-n3cccn3)nc2)cc2c(c1F)OCN([C@H]1CCC[C@@H]1O)C2=O (single isomer, unassigned) [Example 55]
8. Cc1cc2c(cc1Cc1ccc(-n3cccn3)cc1)C(=O)N([C@H]1CCCC[C@@H]1O)CO2 (relative stereo)

[A]
91
107
106
99
104
95
98
101

###

Please go through the items and note down their activity (%) at 10 μM.
Molecular target: human M1 receptor (hCHRM1) (Homo sapiens, UniProt P11229)
Construct: expressed in transfected cells
Sequence (P11229 1-460): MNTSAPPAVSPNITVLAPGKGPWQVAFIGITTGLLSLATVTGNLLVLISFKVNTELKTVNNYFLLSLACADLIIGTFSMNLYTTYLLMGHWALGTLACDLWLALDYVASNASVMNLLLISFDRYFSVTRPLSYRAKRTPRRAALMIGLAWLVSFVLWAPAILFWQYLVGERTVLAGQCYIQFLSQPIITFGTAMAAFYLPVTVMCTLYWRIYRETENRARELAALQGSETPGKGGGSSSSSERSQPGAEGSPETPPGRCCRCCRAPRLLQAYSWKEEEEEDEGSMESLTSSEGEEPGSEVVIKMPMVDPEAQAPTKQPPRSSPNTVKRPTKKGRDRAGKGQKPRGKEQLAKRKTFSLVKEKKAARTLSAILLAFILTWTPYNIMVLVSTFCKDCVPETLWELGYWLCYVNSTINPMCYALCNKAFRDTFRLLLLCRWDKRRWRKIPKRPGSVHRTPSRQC
Assay: Measurement of M1 receptor positive allosteric modulator (M1PAM) activity, Ca2+ fluorescence by FLIPRtetra (Experimental Example 1)
Format: cell-based
Conditions: 10 μM test compound, 100% = acetylcholine 1 μM, 0% = DMSO
Give bare numbers, in %.

| Compound | Target under test | activity (%) at 10 μM |
| --- | --- | --- |
| Cc1cc2c(cc1Cc1ccc(-n3cccn3)nc1)C(=O)N([C@H]1CCC[C@@H]1O)CO2 | human M1 receptor (hCHRM1) (Homo sapiens, UniProt P11229) | 106 |

Hello, I would appreciate it if you could give activity (%) at 10 μM for each entry below.
1. Cc1c(Cc2ccc(-n3cccn3)cc2)cc2c(c1C)OCN([C@H]1CCCC[C@@H]1O)C2=O (relative stereo)
2. COc1ccc(Cc2cc3c(c(C)c2C)OCN([C@H]2COCC[C@@H]2O)C3=O)cc1 (relative stereo) [Example 59]

[A]
[96, 99]

###

Target: human M1 receptor (hCHRM1) (Homo sapiens, UniProt P11229)
Construct: expressed in transfected cells
Sequence (P11229 1-460): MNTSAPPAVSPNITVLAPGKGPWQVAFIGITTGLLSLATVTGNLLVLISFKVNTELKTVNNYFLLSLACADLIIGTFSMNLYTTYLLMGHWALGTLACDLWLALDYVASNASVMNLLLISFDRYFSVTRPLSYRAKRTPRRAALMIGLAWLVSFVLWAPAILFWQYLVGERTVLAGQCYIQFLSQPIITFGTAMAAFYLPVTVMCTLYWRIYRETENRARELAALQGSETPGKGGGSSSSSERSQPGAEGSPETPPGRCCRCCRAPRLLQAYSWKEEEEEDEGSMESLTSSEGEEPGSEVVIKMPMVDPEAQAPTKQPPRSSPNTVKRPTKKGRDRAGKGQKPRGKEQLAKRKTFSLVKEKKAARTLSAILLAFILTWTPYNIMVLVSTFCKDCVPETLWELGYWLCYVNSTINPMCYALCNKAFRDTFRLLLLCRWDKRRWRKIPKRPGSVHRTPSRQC
Experiment: Measurement of M1 receptor positive allosteric modulator (M1PAM) activity, Ca2+ fluorescence by FLIPRtetra (Experimental Example 1)
Format: cell-based
Details: inflection point of concentration-dependent curve, in presence of acetylcholine at EC20 (0.8-1.0 nM), CHO-K1 cells expressing hCHRM1, read-out: IP value
Reported metric: pEC50
Give bare numbers, as −log10 of the molar value.

Consider the worked cases shown below.
| Compound | Reported metric | Test result |
| --- | --- | --- |
| Cc1cc2c(cc1Cc1ccc(Cl)nc1)C(=O)N([C@H]1CCC[C@@H]1O)CO2 | pEC50 | 7.28 |
| O=C1c2cc(Cc3ccc(Cl)nc3)c3ccccc3c2OCN1[C@H]1CCCC[C@@H]1O (relative stereo) | pEC50 | 7.80 |
| Cc1c(Cc2ccc(-n3cccn3)cc2)cc2c(c1F)OCN([C@H]1CCC[C@@H]1O)C2=O (relative stereo) [Example 30] | pEC50 | 8.07 |

[Q] Entry Cc1cc2c(cc1Cc1ccc(-c3cn(C)nn3)cc1)C(=O)N(CC1CCCO1)CO2 (stereo not shown) : reported pEC50 = ?
[A] 7.64
